assay: amyloid nucleation score (Sup35N fusion, yeast selection) (log enrichment); library NNK1; higher = more nucleation; inactive = no reads after selection;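 further: zero at mode of non-aggregating sequences after 7 days selection at 30°C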
Lab note: anything with amyloid nucleation score at or over 1 counts as YES; the rest go in NO.

In [3]: df
Out[3]:
   sequence_text  qualitative_label
0       YHVSLLSI                 NO
1      DVTLVNFIG                 NO

Q: Is amyloid nucleation score at least 1? Consider `TFTCMPLLWLIFS`
A: YES

Q: Is amyloid nucleation score at least 1? Consider `MVGDARFYAANSG`
A: YES

Q: Is amyloid nucleation score at least 1? Consider `LIIVRSMSNDGSIVGSQAWP`
A: YES

Q: Is amyloid nucleation score at least 1? Consider `GSCGYSTVVDVVCYLDLLLI`
A: NO

Q: Is amyloid nucleation score at least 1? Consider `LAWLFYGFEIKL`
A: NO

====

Answer each item with its documented amyloid nucleation score.
experiment: amyloid nucleation score (Sup35N fusion, yeast selection) (log enrichment); library NNK1; higher = more nucleation; inactive = no reads after selection
One number for each entry.

Worked examples, 6 sequences total:
>>> df
          sequence_text  result
0  DFVLIIFFCPCRYCSSTHTT    3.32
1      YFSVGSCNRYLHWTVQ    5.06
2     SMVLFGRISWIGEVLLL    4.99
3     IIIYRNYALMEYDVGRV    0.75
4  TSDGHFSSQVDSVDESKVGE  -0.534
5    YILGVRSSYSMFMESQCL   0.543

The following sequences each have a reported value; give each one's amyloid nucleation score.
1. YNSRRCNIHFNFIGKC
2. SRVCYNRWLKLWDSDRPVIG
3. NWVLGVAYRRLRHKCSMYRV
4. LVFWRLCERHRWLRGFESA

A:
6.78
-0.001
0.387
-1.06

The following sequences each have a reported value; give each one's amyloid nucleation score.
1. YNREWYYIWLLREFDVRKHS
2. YFGLRSVKRWQT
3. YDFTDFPSPTFRYFVLIGNA
4. GVYSGVVSRSL
5. YVPALYRVSGLCYLLTNHEF
6. VIHTRGNWSKRHVMIWISES
7. SVSNTYERE

A:
[1.43, -0.106, 0.333, -0.21, 0.557, -0.016, 0.879]

The following sequences each have a reported value; give each one's amyloid nucleation score.
1. RTIIDESVTAFLIWFCYVTV
2. INFDRNFF
3. GYPIDGMYKRAALVRMDICF
4. ASAMLMHF
5. TYSRARAQSIMFVRLFKACL

A:
1: -0.21; 2: -0.54; 3: 0.718; 4: 0.716; 5: 0.643

The following sequences each have a reported value; give each one's amyloid nucleation score.
1. TSNNLFKRALVGDYNKVAYR
2. TSAVSSCDFRKRWCCSSFHW
3. VWSNMCFLIDSI
4. RIYRHIIVTGDNII
5. RSNEIVEFGSPWYKMTKGMR
6. ICTVSLLYFVYDKYCHNATL
7. EFYSVTIGNWAMNRTHWRVN

A:
1: 0.572; 2: 0.665; 3: -0.491; 4: 2.57; 5: 0.44; 6: -0.444; 7: 0.461

====

test: amyloid nucleation score (Sup35N fusion, yeast selection) (log enrichment); library NNK1; higher = more nucleation; inactive = no reads after selection
measured-property: amyloid nucleation score
Give bare numbers.

Worked examples, 6 sequences total:
In [3]: df
Out[3]:
          sequence_text  result
0  RSHAIHVYKQLCHRVVFIWL    1.39
1     IFRTIERTVSIFNRSSR   0.222
2  IKRTCYPLVRGVPNQIRNLK  -0.091
3         PLRNGWFLRKLRS   -1.35
4  GIWIRVSLAMRVTTSRRLGN    2.57
5  TGTPYLLHLNWNLGSGMSGT   0.451

The following sequences each have a reported value; give each one's amyloid nucleation score.
1. RIRIFNKKSGMGQRWILVEG
2. TSIMRVTILLISGGRLDVFL
3. SNSFALALLPGGT
4. PFGLRYQLRIRHYTMIEELS
5. SASEIPALSTTGSNGMDEVI
6. HHMRCLGTLNNLCKCCFEER
7. MVKYPVTKNSSLPCSTRLTF

A:
1: -0.006; 2: -0.896; 3: 0.275; 4: 1.88; 5: -0.249; 6: 3.41; 7: 1.01

Q: Please give the measured amyloid nucleation score for this sequence: `AYSERTSGTMTRVWWDLRSR`
A: -0.795

====

assay: amyloid nucleation score (Sup35N fusion, yeast selection) (log enrichment); library NNK2; higher = more nucleation; inactive = no reads after selection
Answer each item with its documented amyloid nucleation score.
Answers are plain numbers.

Worked examples, 6 sequences total:
>>> df
          sequence_text         measured_property  result
0  PCCFYLRICLCFSNTVEPIG  amyloid nucleation score    4.07
1  WLLVYYISARVQQSADNKRW  amyloid nucleation score   -1.02
2  NGMFLRTRCIRVFAVRRMLQ  amyloid nucleation score    1.12
3              LRVQGGWL  amyloid nucleation score    1.49
4       LCSMEIWRMRRMMQS  amyloid nucleation score   0.154
5             LWGFMCFFW  amyloid nucleation score   -1.41

Q: Please give the measured amyloid nucleation score for this sequence: `SFDCKVMVFCAMRYNLRIMS`
A: -1

====

test: amyloid nucleation score (Sup35N fusion, yeast selection) (log enrichment); library NNK1; higher = more nucleation; inactive = no reads after selection
Lab note: anything with amyloid nucleation score at or over 0.1 counts as Y; the rest go in N.

>>> df
              substance  qualitative_label
0  THVIRVGNQRSLRVFSRGVS                  Y
1  WQCDLNDLLVCTFSMLGYGR                  N

Q: Is amyloid nucleation score at least 0.1? Consider `HFGAYLVVM`
A: N

Q: Is amyloid nucleation score at least 0.1? Consider `MEKYYGQLLKDY`
A: Y

Q: Is amyloid nucleation score at least 0.1? Consider `MLRTAMKCWSTSMGDCLEAF`
A: Y

Q: Is amyloid nucleation score at least 0.1? Consider `VTSWQIDKLPWASANSLFWL`
A: Y

Q: Is amyloid nucleation score at least 0.1? Consider `AYCVAHTYCMSGMRYIADWV`
A: Y

Q: Is amyloid nucleation score at least 0.1? Consider `LNRSGIISITIMTWSFGNAQ`
A: Y

Q: Is amyloid nucleation score at least 0.1? Consider `SLKVTAPTQMGQCVVGGVYH`
A: N

====

Answer each item with its documented amyloid nucleation score.
assay: amyloid nucleation score (Sup35N fusion, yeast selection) (log enrichment); library NNK2; higher = more nucleation; inactive = no reads after selection
Give bare numbers.

Worked examples, 3 substances total:
          substance  result
0         SLLIYQMYE  -0.263
1  WTCVGSYWSLHFAFSR    4.25
2         RGVLYAKVL   0.808

The following substances each have a reported value; give each one's amyloid nucleation score.
1. NHAQMDMKTHVINRLCKE
2. SLYVGFNRFFIRPVCCEVRG
3. GVSNNALCSNRITSLNRPML

A:
1: 0.605; 2: -0.608; 3: 0.313

The following substances each have a reported value; give each one's amyloid nucleation score.
1. VSTILYLDY
2. RFIMSRYALEGAESTLMKHN
3. YFSWTWVVFNAFNEVRFWTW
4. MFTKDISGFLGVLGHVVVLG
5. IESPLIEFTIDCW
6. YSGLKCALCRCC
7. LWFGRSCGFGIGVYYRRPSL

A:
[0.218, 3.53, -1.59, -0.237, -0.025, 1.94, -0.213]

====

assay: amyloid nucleation score (Sup35N fusion, yeast selection) (log enrichment); library NNK2; higher = more nucleation; inactive = no reads after selection
Lab note: anything with amyloid nucleation score at or over -0.5 counts as T; the rest go in F.

>>> print(df.to_string())
              substance  qualitative_label
0             NMFVSSRSM                  T
1              NNNFMRTR                  T
2               GGYSLWF                  T
3  VTSICNPDVIMEEKLGDNRG                  T
4  LSYYKVIWGHLMVKYPTYRQ                  T

Q: Is amyloid nucleation score at least -0.5? Consider `RVFRCYRIIYMVMI`
A: T

Q: Is amyloid nucleation score at least -0.5? Consider `ILLNEVFDRTWSELPGCNCT`
A: T

Q: Is amyloid nucleation score at least -0.5? Consider `MIRTHLRRIYNS`
A: F

Q: Is amyloid nucleation score at least -0.5? Consider `KRRSQIRMTNDNLASVNMKN`
A: T

Q: Is amyloid nucleation score at least -0.5? Consider `DITYEYTTWGFLRRQAIRRP`
A: T

Q: Is amyloid nucleation score at least -0.5? Consider `VVDTGFQRTGKSWIINDRGM`
A: T

Q: Is amyloid nucleation score at least -0.5? Consider `SLLMNMS`
A: T

Q: Is amyloid nucleation score at least -0.5? Consider `LAKHTGRAGKRCKDMP`
A: T

Q: Is amyloid nucleation score at least -0.5? Consider `SSFAARRR`
A: T

Q: Is amyloid nucleation score at least -0.5? Consider `QFWVPTLEAWSWTSAFPYMP`
A: F

Q: Is amyloid nucleation score at least -0.5? Consider `MIISTVMSGMNANSLVVWAY`
A: T

Q: Is amyloid nucleation score at least -0.5? Consider `RGIKNVWNL`
A: T

Q: Is amyloid nucleation score at least -0.5? Consider `QDVFCLSGLNSHCK`
A: F

Q: Is amyloid nucleation score at least -0.5? Consider `CVSADPFCPIEQFNVMILAL`
A: F

Q: Is amyloid nucleation score at least -0.5? Consider `WGRWAVSFYGLREDSLLSLG`
A: T

Q: Is amyloid nucleation score at least -0.5? Consider `SIHDQLGHYVFIV`
A: F

Q: Is amyloid nucleation score at least -0.5? Consider `GVVNSRYALFNCRLEFKDVL`
A: T

Q: Is amyloid nucleation score at least -0.5? Consider `NVHCILMSGVMGIQYRWKVL`
A: T

Q: Is amyloid nucleation score at least -0.5? Consider `DFDSQRSLKSSDRRFVTFTY`
A: F

Q: Is amyloid nucleation score at least -0.5? Consider `SNSFVVFSRVVTRKFVCVLW`
A: F

Q: Is amyloid nucleation score at least -0.5? Consider `GHNATNVGHIMFFITTWCCY`
A: T

Q: Is amyloid nucleation score at least -0.5? Consider `QRFRHRKTQISVFS`
A: F
